The values you see were collected from patent EP4806890A1.

Equilibrium solubility for assorted molecules
Assay: Solubility determination (equilibrium solubility, 24 hrs stirring at room temperature, HPLC)
Format: physicochemical
Conditions: Water; target concentration 2000 µg/mL; 24 hrs, room temperature
Structures can show the parent of a compound that is named as a salt.
observationType: Equilibrium solubility

Cc1c(NC(=O)c2cc(C3CC3)c(CN3CCCC[C@H]3C(=O)O)cn2)cccc1-c1cccc(NC(=O)c2cc(C3CC3)c(CN3CCCC[C@H]3C(=O)O)cn2)c1C [crystalline form B of disodium salt anhydrate] ... ≥ 2000 µg/mL
Cc1c(NC(=O)c2cc(C3CC3)c(CN3CCCC[C@H]3C(=O)O)cn2)cccc1-c1cccc(NC(=O)c2cc(C3CC3)c(CN3CCCC[C@H]3C(=O)O)cn2)c1C [free-form crystalline form F] ... 69.47 µg/mL
Cc1c(NC(=O)c2cc(C3CC3)c(CN3CCCC[C@H]3C(=O)O)cn2)cccc1-c1cccc(NC(=O)c2cc(C3CC3)c(CN3CCCC[C@H]3C(=O)O)cn2)c1C [free-form crystalline form C] ... 3.84 µg/mL
Cc1c(NC(=O)c2cc(C3CC3)c(CN3CCCC[C@H]3C(=O)O)cn2)cccc1-c1cccc(NC(=O)c2cc(C3CC3)c(CN3CCCC[C@H]3C(=O)O)cn2)c1C [crystalline form A of disodium salt hydrate] ... > 2000 µg/mL
Cc1c(NC(=O)c2cc(C3CC3)c(CN3CCCC[C@H]3C(=O)O)cn2)cccc1-c1cccc(NC(=O)c2cc(C3CC3)c(CN3CCCC[C@H]3C(=O)O)cn2)c1C [free-form crystalline form D] ... 51.93 µg/mL

---

Assay: Hygroscopic behavior test by dynamic vapor sorption (DVS)
Type: physicochemical
Details: Relative humidity 80.0 % at 25 °C
Structures can show the parent of a compound that is named as a salt.
observationType: Hygroscopic weight increase (%)

Cc1c(NC(=O)c2cc(C3CC3)c(CN3CCCC[C@H]3C(=O)O)cn2)cccc1-c1cccc(NC(=O)c2cc(C3CC3)c(CN3CCCC[C@H]3C(=O)O)cn2)c1C [free-form crystalline form C] ... 2.21
Cc1c(NC(=O)c2cc(C3CC3)c(CN3CCCC[C@H]3C(=O)O)cn2)cccc1-c1cccc(NC(=O)c2cc(C3CC3)c(CN3CCCC[C@H]3C(=O)O)cn2)c1C [free-form crystalline form F] ... 2.55
Cc1c(NC(=O)c2cc(C3CC3)c(CN3CCCC[C@H]3C(=O)O)cn2)cccc1-c1cccc(NC(=O)c2cc(C3CC3)c(CN3CCCC[C@H]3C(=O)O)cn2)c1C [crystalline form A of disodium salt hydrate] ... 14.59
Cc1c(NC(=O)c2cc(C3CC3)c(CN3CCCC[C@H]3C(=O)O)cn2)cccc1-c1cccc(NC(=O)c2cc(C3CC3)c(CN3CCCC[C@H]3C(=O)O)cn2)c1C [free-form crystalline form D] ... 3.79

---

Test: Hygroscopic behavior test by dynamic vapor sorption (DVS)
Format: physicochemical
Conditions: Relative humidity 50.0 % at 25 °C
Counter-ions that a name gives are not always drawn.
Hygroscopic weight increase (%) for assorted compounds
observationType: Hygroscopic weight increase (%)

Cc1c(NC(=O)c2cc(C3CC3)c(CN3CCCC[C@H]3C(=O)O)cn2)cccc1-c1cccc(NC(=O)c2cc(C3CC3)c(CN3CCCC[C@H]3C(=O)O)cn2)c1C [free-form crystalline form F] ... 1.14
Cc1c(NC(=O)c2cc(C3CC3)c(CN3CCCC[C@H]3C(=O)O)cn2)cccc1-c1cccc(NC(=O)c2cc(C3CC3)c(CN3CCCC[C@H]3C(=O)O)cn2)c1C [free-form crystalline form C] ... 1.35
Cc1c(NC(=O)c2cc(C3CC3)c(CN3CCCC[C@H]3C(=O)O)cn2)cccc1-c1cccc(NC(=O)c2cc(C3CC3)c(CN3CCCC[C@H]3C(=O)O)cn2)c1C [crystalline form A of disodium salt hydrate] ... 11.64
Cc1c(NC(=O)c2cc(C3CC3)c(CN3CCCC[C@H]3C(=O)O)cn2)cccc1-c1cccc(NC(=O)c2cc(C3CC3)c(CN3CCCC[C@H]3C(=O)O)cn2)c1C [free-form crystalline form D] ... 2.30
